Each recorded value in this set is attributed to PubChem BioAssay (NCI).

- System: A498 renal
- Assay Summary: NCI tumour cell line growth inhibition, 48 h
Reported Metric: TGI

Here's what some known entries look like.
{"Compound": "C[N+](C)(C)CC(=O)N/N=C(\\Cc1nc2ccc([N+](=O)[O-])cc2[nH]c1=O)C(=O)Nc1nc2ccc([N+](=O)[O-])cc2s1", "TGI": "> 100 µM"}
{"Compound": "Nc1[nH]nc2nc(-c3cc(Cl)ccc3Cl)cc(-c3ccc(F)cc3)c12", "TGI": "42.2 µM"}
{"Compound": "COc1ccc(N2C(=O)C(Cl)C2c2cc3cc(Br)ccc3nc2Cl)cc1 (stereo not given)", "TGI": "> 25 µM"}
{"Compound": "CCOP(=O)(C/C=C/Cn1ncc(=O)[nH]c1=O)OCC", "TGI": "> 100 µM"}

--- query ---
*Q* Observed TGI on A498 renal for Cn1c(CCCC(=O)O)nc2cc(N(CCCl)CCCl)ccc21 , please.
*A* > 75 µM

----------
- System: A549 NSCLC
- Assay Summary: NCI tumour cell line growth inhibition, 48 h
Reported values of TGI for individual entries

*Q* Looking for the measured TGI of COC(=O)c1c[nH]c2cc(OC(C)C)c(OC(C)C)cc2c1=O , can you help?
*A* > 100 µM

*Q* Looking for the measured TGI of Cc1[nH]c(C)c(CN(C)C)c1CN(C)C , can you help?
*A* > 100 µM

*Q* Looking for the measured TGI of CCOP(=O)(C/C=C/Cn1ncc(=O)[nH]c1=O)OCC , can you help?
*A* > 100 µM

*Q* Looking for the measured TGI of Clc1sc(Cl)c2c1[C@H](Cl)C[C@@H]2Cl , can you help?
*A* 86.2 µM

----------
- Tested on: NCI-H460 lung
Permitted responses: 1.0 (active), 0.0 (inactive)

{"Molecule": "COC(=O)c1c[nH]c2cc(OC(C)C)c(OC(C)C)cc2c1=O", "Target System": "NCI-H460 lung", "Answer Label": 0.0}
{"Molecule": "CN1CCN(CCCNC(=O)c2c3c(n4ccccc24)C(=O)c2ncccc2C3=O)CC1", "Target System": "NCI-H460 lung", "Answer Label": 1.0}
{"Molecule": "O=C(Oc1ccccc1)N(c1ccccc1)c1ccccc1", "Target System": "NCI-H460 lung", "Answer Label": 0.0}

*Q* In this assay, the call recorded for NCCCNc1nc2ccccc2c2c(=O)c3cc(F)ccc3sc12 was what?
*A* 0.0

*Q* In this assay, the call recorded for O=C(/C=C/c1ccccc1)c1cccc2ccccc12 was what?
*A* 0.0

*Q* In this assay, the call recorded for COc1cc(C(=O)/C=C/c2cc(-c3ccc4c(c3)OCO4)n[nH]2)cc(OC)c1OC was what?
*A* 0.0

*Q* In this assay, the call recorded for Cc1nc2sc(C(=O)Nc3cccc(Br)c3C)c(N)c2cc1C(O)c1ccccc1 (centres undefined) was what?
*A* 1.0

*Q* In this assay, the call recorded for Cc1sc(C(=O)c2cncnc2N[C@@H]2C[C@H](COS(N)(=O)=O)[C@@H](O)C2)cc1[C@@H]1NCCc2ccc(Cl)cc21 was what?
*A* 0.0

*Q* In this assay, the call recorded for COc1cccc2c1C(=O)c1c(O)c3c(c(O)c1C2=O)C[C@@](O)(/C(CO)=N/NC(=O)CCCCCN1C(=O)C=CC1=O)C[C@@H]3O[C@H]1C[C@H](N)[C@H](O)[C@H](C)O1 was what?
*A* 1.0

----------
Reported values of TGI for individual entries
- Tested on: MDA-N
- Assay Summary: NCI tumour cell line growth inhibition, 48 h

Here's what some known entries look like.
{"Molecule": "O=C1C=C(c2ccccc2)OC1C1Sc2ccccc2NC1=O (stereo not given)", "Target System": "MDA-N", "TGI": "> 100 µM"}
{"Molecule": "CCc1n[nH]c(=O)n1CC", "Target System": "MDA-N", "TGI": "> 100 µM"}
{"Molecule": "NS(=O)(=O)c1ccc(N=Nc2ccc[nH]c2=O)cc1", "Target System": "MDA-N", "TGI": "> 100 µM"}
{"Molecule": "COC(=O)[C@@H]1C[C@@H](O)CN1C(=O)c1ccc([N+](=O)[O-])cc1[N+](=O)[O-]", "Target System": "MDA-N", "TGI": "> 100 µM"}
{"Molecule": "[N-]=[N+]=NC1C(O)C(CO)OC1n1ccc(N)nc1=O (stereo not given)", "Target System": "MDA-N", "TGI": "> 625 µM"}

*Q* Looking for the measured TGI of O=C1CSC(c2ccccc2O)N1c1ccc2c(c1)Oc1c(Cl)c3c(c(Cl)c1=N2)Oc1cc(N2C(=O)CSC2c2ccccc2O)ccc1N=3 (stereo not given) , can you help?
*A* > 100 µM

*Q* Looking for the measured TGI of CC(=O)OCC1(C)C(O)CCC2(C)C1CCC1CC3CC12CCC3(O)CO (stereo not given) , can you help?
*A* > 100 µM

*Q* Looking for the measured TGI of Clc1cccc(-c2nc3cccc4c3n2Cc2ncccc2-4)c1 , can you help?
*A* > 100 µM

*Q* Looking for the measured TGI of COC(=O)[C@@H]1CN(C(=O)CCc2ccccc2)C(=O)N1 , can you help?
*A* > 100 µM

*Q* Looking for the measured TGI of S=C1NC2=C(CSC/C2=C\c2ccc(Cl)cc2)C(c2ccc(Cl)cc2)N1 (stereo not given) , can you help?
*A* > 100 µM

*Q* Looking for the measured TGI of COc1ccccc1-n1nnc2c(N)nc(N)nc21 , can you help?
*A* > 100 µM

*Q* Looking for the measured TGI of C/C(=N\NC(=O)c1ccncc1)c1sc(-n2nc(-c3ccccc3)cc2-c2ccccc2)nc1C , can you help?
*A* > 100 µM

----------
- System: OVCAR-4 ovarian
- Assay Summary: NCI tumour cell line growth inhibition, 48 h
Reported Metric: TGI

Here's what some known entries look like.
{"Compound": "C=C1CN=C(Nc2ccc(Cl)cc2)S1", "Reported Metric": "TGI", "Result": "> 100 µM"}
{"Compound": "CC(=O)NS(=O)(=O)c1ccc(NCc2cccc3c(=O)c4ccc(Cl)cc4oc23)cc1", "Reported Metric": "TGI", "Result": "> 100 µM"}
{"Compound": "Nc1ccccc1C#C/C=C\\C#Cc1ccccc1C#CCO", "Reported Metric": "TGI", "Result": "41.4 µM"}
{"Compound": "C=C1N(S(=O)(=O)c2ccc(C)cc2)C(=O)OCC12CCCC2", "Reported Metric": "TGI", "Result": "> 100 µM"}
{"Compound": "COC(=O)c1c(O)ccc(O)c1C(C(C)=O)C(C)=O", "Reported Metric": "TGI", "Result": "> 100 µM"}

*Q* Observed TGI on OVCAR-4 ovarian for CC(C)(C)[Si](C)(C)OCC1OC(n2cnc3c(=O)[nH]cnc32)CC1O (centres undefined) , please.
*A* > 100 µM

*Q* Observed TGI on OVCAR-4 ovarian for O=Cc1ccc2ccocc1-2 , please.
*A* > 100 µM

*Q* Observed TGI on OVCAR-4 ovarian for O=C(NN1C(=O)CS(=O)(=O)C1c1ccc(Cl)c(Cl)c1)c1ccncc1 (centres undefined) , please.
*A* > 100 µM

*Q* Observed TGI on OVCAR-4 ovarian for COC(=O)[C@H](Cc1cn(C)cn1)NC(=O)[C@H](CC(=O)OCc1ccccc1)NC(=O)Nc1cc(C(F)(F)F)cc(C(F)(F)F)c1 , please.
*A* 27.1 µM

*Q* Observed TGI on OVCAR-4 ovarian for C=CCn1c2ccccc2c2c3c(c4c5ccccc5n(CC=C)c4c21)C(=O)N(O)C3=O , please.
*A* 44.8 µM

*Q* Observed TGI on OVCAR-4 ovarian for CN1CCN(c2cc3nc(-c4ccc(Cl)cc4)[nH]c3cc2F)CC1 , please.
*A* > 62.7 µM

*Q* Observed TGI on OVCAR-4 ovarian for CNC(=O)C(C)Oc1ccc(OCC2CCCCC2)cc1 (centres undefined) , please.
*A* > 100 µM

*Q* Observed TGI on OVCAR-4 ovarian for Cc1[nH]c(C)c(CN(C)C)c1CN(C)C , please.
*A* > 100 µM

*Q* Observed TGI on OVCAR-4 ovarian for COc1cc(C(=O)/C=C/c2cc(-c3ccc4c(c3)OCO4)n[nH]2)cc(OC)c1OC , please.
*A* 4.24 µM

*Q* Observed TGI on OVCAR-4 ovarian for CC1(C)OCC(CO)(CO)CO1 , please.
*A* > 100 µM

*Q* Observed TGI on OVCAR-4 ovarian for C[C@@H](Nc1cc(F)cc(F)c1)c1cc(C(=O)N(C)C)cc2c(=O)cc(N3CCOCC3)oc12 , please.
*A* > 100 µM

*Q* Observed TGI on OVCAR-4 ovarian for C/C(O)=C(\C=N\C(=S)N=Nc1c(O)[nH]c2ccccc12)C(=O)Nc1ccccc1C , please.
*A* > 100 µM

*Q* Observed TGI on OVCAR-4 ovarian for N#C/C(=C\c1cc(O)c(O)c(O)c1)C(N)=O , please.
*A* > 100 µM

*Q* Observed TGI on OVCAR-4 ovarian for COc1ccc(Oc2nc3cc(N)cc(N)c3nc2-c2ccccc2)cc1 , please.
*A* 24.6 µM
